target: p110α Type Ia human PI3K (Homo sapiens, UniProt P42336); construct: full length DNA of each of the p110α, p110β and p110δ Type Ia human PI3K p110 isoforms; 6-His; made in house; host or cells: baculovirus expression system (Sf9 is named only for PI3Kγ); assay: Test (a) In Vitro PI3K Enzyme Assay (AlphaScreen); assay type: biochemical; settings: read-out: IC50 versus p110α PI3K
Sequence (P42336 whole entry, canonical isoform): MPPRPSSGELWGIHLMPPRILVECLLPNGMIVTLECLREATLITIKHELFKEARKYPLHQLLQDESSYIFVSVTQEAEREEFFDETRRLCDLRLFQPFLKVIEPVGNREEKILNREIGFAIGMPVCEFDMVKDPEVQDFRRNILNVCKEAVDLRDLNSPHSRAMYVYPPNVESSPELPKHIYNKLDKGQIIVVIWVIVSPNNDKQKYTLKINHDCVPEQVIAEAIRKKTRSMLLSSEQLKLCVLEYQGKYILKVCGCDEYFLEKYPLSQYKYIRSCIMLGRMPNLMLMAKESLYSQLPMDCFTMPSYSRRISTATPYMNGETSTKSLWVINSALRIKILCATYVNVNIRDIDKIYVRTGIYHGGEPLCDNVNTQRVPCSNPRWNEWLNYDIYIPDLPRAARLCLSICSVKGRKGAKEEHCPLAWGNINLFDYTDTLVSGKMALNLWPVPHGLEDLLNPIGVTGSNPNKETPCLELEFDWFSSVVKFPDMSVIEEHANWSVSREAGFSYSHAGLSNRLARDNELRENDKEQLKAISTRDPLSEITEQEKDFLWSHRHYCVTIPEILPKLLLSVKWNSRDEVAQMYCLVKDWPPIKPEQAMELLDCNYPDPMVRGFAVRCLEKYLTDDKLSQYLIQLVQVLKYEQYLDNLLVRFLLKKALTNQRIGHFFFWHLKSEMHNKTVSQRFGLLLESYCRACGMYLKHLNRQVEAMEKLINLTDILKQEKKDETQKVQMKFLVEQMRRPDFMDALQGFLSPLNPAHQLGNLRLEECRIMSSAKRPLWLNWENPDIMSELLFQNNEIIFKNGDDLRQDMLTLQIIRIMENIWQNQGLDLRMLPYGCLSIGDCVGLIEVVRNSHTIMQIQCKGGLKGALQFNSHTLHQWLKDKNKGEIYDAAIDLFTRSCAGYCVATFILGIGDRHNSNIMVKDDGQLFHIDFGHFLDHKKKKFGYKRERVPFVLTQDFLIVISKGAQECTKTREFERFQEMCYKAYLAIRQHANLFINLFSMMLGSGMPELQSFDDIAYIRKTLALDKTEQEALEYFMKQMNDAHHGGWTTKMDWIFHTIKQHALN
Sequence (P27986 whole entry partner, canonical isoform): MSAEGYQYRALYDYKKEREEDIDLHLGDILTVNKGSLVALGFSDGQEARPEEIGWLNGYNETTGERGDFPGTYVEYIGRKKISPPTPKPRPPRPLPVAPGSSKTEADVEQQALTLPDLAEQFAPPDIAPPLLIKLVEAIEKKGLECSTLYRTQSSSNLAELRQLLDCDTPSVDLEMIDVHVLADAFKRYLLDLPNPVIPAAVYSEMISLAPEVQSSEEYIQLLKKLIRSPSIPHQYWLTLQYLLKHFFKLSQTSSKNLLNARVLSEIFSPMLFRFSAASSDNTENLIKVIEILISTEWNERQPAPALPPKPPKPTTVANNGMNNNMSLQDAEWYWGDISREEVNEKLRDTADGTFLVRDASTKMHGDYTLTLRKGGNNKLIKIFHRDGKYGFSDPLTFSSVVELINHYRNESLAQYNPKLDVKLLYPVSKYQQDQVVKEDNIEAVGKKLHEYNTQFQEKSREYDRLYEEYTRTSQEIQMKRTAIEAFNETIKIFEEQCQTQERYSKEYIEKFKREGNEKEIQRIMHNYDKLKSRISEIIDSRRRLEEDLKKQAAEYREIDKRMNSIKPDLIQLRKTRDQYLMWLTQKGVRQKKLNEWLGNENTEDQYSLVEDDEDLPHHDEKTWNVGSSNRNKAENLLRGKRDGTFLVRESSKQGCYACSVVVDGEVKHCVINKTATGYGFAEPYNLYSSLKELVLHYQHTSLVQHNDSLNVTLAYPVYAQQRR
Structures can show the parent of a compound that is named as a salt.
ENDPOINT: IC50

>  <MOLECULE>
CC(=O)Nc1nc(C)c(-c2cnc(Cl)c(NS(C)(=O)=O)c2)s1 [Example 28, trifluoroacetate]

>  <ENDPOINT>
IC50

>  <REPORTED_MEASUREMENT>
~10 nM

$$$$
>  <MOLECULE>
CC(=O)Nc1nc(C)c(-c2cnc(Cl)c(NCc3ccc(F)cc3)c2)s1 [Compound No. 3 within Example 79]

>  <ENDPOINT>
IC50

>  <REPORTED_MEASUREMENT>
~200 nM

$$$$
>  <MOLECULE>
CC(=O)Nc1nc(C)c(-c2cnc(Cl)c(S(=O)(=O)Nc3ccccc3)c2)s1 [Compound No. 4 within Example 73]

>  <ENDPOINT>
IC50

>  <REPORTED_MEASUREMENT>
~30 nM

$$$$
>  <MOLECULE>
CC(=O)Nc1nc(C)c(-c2cnc(Cl)c(NS(=O)(=O)c3ccccc3)c2)s1 [Example 13, trifluoroacetate]

>  <ENDPOINT>
IC50

>  <REPORTED_MEASUREMENT>
~10 nM

$$$$
